# Assay type: in vivo, human
# test-context: human, serum, oral, 0.25 mg
property-name: Cmax (ng/mL)
The answer is to be given in ng/mL; state only the numeric part.

Record "C[C@H]1O[C@@H](O[C@H]2[C@@H](O)C[C@H](O[C@H]3[C@@H](O)C[C@H](O[C@H]4CC[C@@]5(C)[C@H](CC[C@@H]6[C@@H]5C[C@@H](O)[C@]5(C)[C@@H](C7=CC(=O)OC7)CC[C@]65O)C4)O[C@@H]3C)O[C@@H]2C)C[C@H](O)[C@@H]1O" . Reported Cmax: 1.68

---

# test-context: human, plasma, oral, 10 mg
property-name: Cmax (ng/mL)
The answer is to be given in ng/mL; state only the numeric part.

Record "COc1ccc(-n2nc(C(N)=O)c3c2C(=O)N(c2ccc(N4CCCCC4=O)cc2)CC3)cc1" . Reported Cmax: 216

---

# test-context: human, plasma, oral, 10 mg
property-name: AUC(0-inf) (µg·h/mL)
The answer is to be given in µg·h/mL; state only the numeric part.

Record "COc1ccc(-n2nc(C(N)=O)c3c2C(=O)N(c2ccc(N4CCCCC4=O)cc2)CC3)cc1" . Reported AUC(0-inf): 2.16

---

# test-context: human, plasma, oral, 10 mg
property-name: Tmax (h)
The answer is to be given in h; state only the numeric part.

Record "COc1ccc(-n2nc(C(N)=O)c3c2C(=O)N(c2ccc(N4CCCCC4=O)cc2)CC3)cc1" . Reported Tmax: 3

---

# test-context: human, plasma, oral, 10 mg
property-name: half-life (h)
The answer is to be given in h; state only the numeric part.

Record "COc1ccc(-n2nc(C(N)=O)c3c2C(=O)N(c2ccc(N4CCCCC4=O)cc2)CC3)cc1" . Reported half-life: 13.9

Data provenance is paper PMC5327911.
